The reported numbers originate from PubChem BioAssay AID1159580.

Assay: chemical genetic growth profiling, strain panel (AID 1159580);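 note: tested at 20 µM; growth read once vehicle control cultures reached saturation at 30 °C; 1 = growth at the plate median or of vehicle wells; lower values mean less growth of the strain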
Details: S. cerevisiae deletion strains, growth OD, locus YJL095W, strain BCK1, active compounds read low
Hit rate of the full screen: of about 5,500 compounds, about 2,000 (36%) were called active. Not shown: some 18% with an inconclusive outcome. The list shows a part of the results.
experimental.readout: normalized growth

{"compound": "O=C(O)c1cc(=O)c2ccc(Cl)cc2[nH]1", "experimental.readout": "normalized growth", "obs.value": 1.04}
{"compound": "Cc1c(Cl)cccc1NC(=S)N1CCCN(c2nc3ccc(Cl)cc3s2)CC1", "experimental.readout": "normalized growth", "obs.value": 0.863}
{"compound": "O=C(O)C1C(O)CCC2CN3CCc4c([nH]c5ccccc45)C3CC21 (configuration not stated)", "experimental.readout": "normalized growth", "obs.value": 1.03}
{"compound": "O=[N+]([O-])O[C@@H]1CO[C@H]2[C@@H]1OC[C@@H]2O", "experimental.readout": "normalized growth", "obs.value": 1}
{"compound": "CC(C)(C)C1=NN(c2nc3ccc(Cl)cc3s2)C(=O)C1", "experimental.readout": "normalized growth", "obs.value": 0.104}
{"compound": "COc1ccc(C(C)=O)c(O)c1", "experimental.readout": "normalized growth", "obs.value": 0.968}
{"compound": "COc1c(CC=C(C)C)c2c(c3oc(=O)c(-c4ccc(OC(C)=O)cc4)c(OC(C)=O)c13)C=CC(C)(C)O2", "experimental.readout": "normalized growth", "obs.value": 1.12}
{"compound": "S=C(Nc1cc(-c2cccs2)[nH]n1)Nc1ccccc1Cl", "experimental.readout": "normalized growth", "obs.value": 0.748}
{"compound": "CC(=O)OCC1=C(C(=O)O)N2C(=O)[C@@H](N)C2SC1 (some centres not stated)", "experimental.readout": "normalized growth", "obs.value": 1.07}
{"compound": "COc1ccc(NC(=O)O/N=C(/N)c2ccc(Oc3c(Cl)cncc3Cl)cc2)cc1", "experimental.readout": "normalized growth", "obs.value": 0.578}
{"compound": "O=C(NCc1ccco1)c1ccc(Oc2cc(Cl)cc(Cl)c2)o1", "experimental.readout": "normalized growth", "obs.value": 0.931}
{"compound": "O=[N+]([O-])c1cc(C(F)(F)F)ccc1-n1ccc(-c2cccs2)n1", "experimental.readout": "normalized growth", "obs.value": 0.863}
{"compound": "O=C(Nc1cc(Cl)cc(Cl)c1)Nc1cc(-c2ccco2)[nH]n1", "experimental.readout": "normalized growth", "obs.value": 0.112}
{"compound": "COc1c2c(c(CC=C(C)C)c3oc(=O)c(-c4ccc(O)cc4)c(O)c13)OC(C)(C)C=C2", "experimental.readout": "normalized growth", "obs.value": 0.352}
{"compound": "C=CC(=O)N1CCc2cc([N+](=O)[O-])ccc21", "experimental.readout": "normalized growth", "obs.value": 0.276}
{"compound": "O=C(CCN1CCCCC1)c1ccc(-c2ccccc2)cc1", "experimental.readout": "normalized growth", "obs.value": 0.689}
{"compound": "CC(C)=CCc1c(O)cc(C)oc1=O", "experimental.readout": "normalized growth", "obs.value": 1.04}
{"compound": "N#C/C(=C\\c1ccccc1Sc1ccc(Cl)cc1)S(=O)(=O)c1ccccn1", "experimental.readout": "normalized growth", "obs.value": 0.875}
{"compound": "COc1ccc(-c2coc3c(OC)c(O)ccc3c2=O)cc1", "experimental.readout": "normalized growth", "obs.value": 0.813}
{"compound": "Cc1ccccc1C(=O)N1CCc2c([nH]c3ccccc23)C1C(F)(F)F (configuration not stated)", "experimental.readout": "normalized growth", "obs.value": 0.908}
{"compound": "COc1cc(OC)c(C(=O)CCCN2CCCC2)c(OC)c1", "experimental.readout": "normalized growth", "obs.value": 1.03}
{"compound": "Cc1oc2c(F)c(F)c(F)c(F)c2c1C(=O)ONC(N)c1ccc(OS(=O)(=O)N(C)C)cc1 (configuration not stated)", "experimental.readout": "normalized growth", "obs.value": 0.983}
{"compound": "NCCCN=c1ccc2c3c1c(O)c1c(O)ccc(=O)c1c3[nH]n2CCNCCO", "experimental.readout": "normalized growth", "obs.value": 0.893}
{"compound": "O=C(O)c1cc(=O)c2cc(Cl)ccc2[nH]1", "experimental.readout": "normalized growth", "obs.value": 0.994}
{"compound": "Cc1c(C(=O)N2CCCCC2)cc(-c2ccccc2)n1-c1ccccc1", "experimental.readout": "normalized growth", "obs.value": 0.837}
{"compound": "Cc1cc(SCc2[nH]nc3oc(=O)cc(C)c23)c(Cl)cc1Cl", "experimental.readout": "normalized growth", "obs.value": 0.947}
{"compound": "O=C(Nc1cc(Cl)cc(Cl)c1)Nc1cc(-c2cccs2)[nH]n1", "experimental.readout": "normalized growth", "obs.value": 0.739}
{"compound": "NC(N)=NOCC[C@H](N)C(=O)O", "experimental.readout": "normalized growth", "obs.value": 1.04}
{"compound": "CC[C@H]1OC(=O)C[C@@H](O)[C@H](C)[C@@H](O[C@@H]2O[C@H](C)[C@@H](O[C@H]3C[C@@](C)(O)[C@@H](O)[C@H](C)O3)[C@H](N(C)C)[C@H]2O)[C@@H](CC=O)C[C@@H](C)C(=O)/C=C/C(C)=C/[C@@H]1CO[C@@H]1O[C@H](C)[C@@H](O)[C@@H](OC)[C@H]1OC", "experimental.readout": "normalized growth", "obs.value": 0.962}
{"compound": "C=C1CC2C3C=C(C)C4=CC(=O)CC[C@]4(C)C3CC[C@]2(C)[C@@]1(OC(C)=O)C(C)=O (some centres not stated)", "experimental.readout": "normalized growth", "obs.value": 0.955}
{"compound": "Cn1c([N+](=O)[O-])cnc1/C=C(\\C#N)C(=O)Nc1ccc(F)cc1", "experimental.readout": "normalized growth", "obs.value": 0.149}
{"compound": "COc1ccc(-c2coc3c(O)c(O)c(OC)cc3c2=O)cc1", "experimental.readout": "normalized growth", "obs.value": 0.955}
{"compound": "Cc1c(Cl)cccc1NC(=S)N1CCCN(c2ccc(C(F)(F)F)cc2[N+](=O)[O-])CC1", "experimental.readout": "normalized growth", "obs.value": 1.01}
{"compound": "COc1ccc(-c2coc3c(OC)c(OC)ccc3c2=O)cc1", "experimental.readout": "normalized growth", "obs.value": 0.838}
{"compound": "COc1c(CC=C(C)C)c2c(c3oc(=O)c(-c4ccc(O)cc4)c(O)c13)C=CC(C)(C)O2", "experimental.readout": "normalized growth", "obs.value": 0.74}
{"compound": "COC(=O)[C@H]1[C@H]2C[C@H]3c4[nH]c5ccccc5c4CCN3C[C@H]2CC[C@@H]1O", "experimental.readout": "normalized growth", "obs.value": 1.02}
{"compound": "O=C(O)/C=C/C=C/c1ccc2c(c1)OCO2", "experimental.readout": "normalized growth", "obs.value": 0.897}
{"compound": "CN1CCCC(n2nc(Cc3ccc(Cl)cc3)c3ccccc3c2=O)CC1 (configuration not stated)", "experimental.readout": "normalized growth", "obs.value": 0.979}
{"compound": "NCC1CCCCC1CC(=O)O (configuration not stated)", "experimental.readout": "normalized growth", "obs.value": 0.988}
{"compound": "C/C(=N/NC(N)=S)c1ccc(Oc2c(Cl)cncc2Cl)cc1", "experimental.readout": "normalized growth", "obs.value": 0.944}
{"compound": "CC(C)[C@H](N)C(=O)OCCOCn1cnc2c(=O)[nH]c(N)nc21", "experimental.readout": "normalized growth", "obs.value": 1.02}
{"compound": "C[C@H]1CC2C3CCC4=CC(=O)C=C[C@]4(C)[C@@]3(F)[C@@H](O)C[C@]2(C)[C@@]1(O)C(=O)COP(=O)(O)O (some centres not stated)", "experimental.readout": "normalized growth", "obs.value": 1.03}
